Tested on: ATP;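 also: ATP exposure 15 min at 22 °C before imaging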
procedureText: switch fluorescence ratio, 500 uM ATP over buffer (Cy3 cluster intensity, sum of 5 cycles each) (fold (ratio)); higher = stronger signal-on switching upon ATP binding; sequences stand for … in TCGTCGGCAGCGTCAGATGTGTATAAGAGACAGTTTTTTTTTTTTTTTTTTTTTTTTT…TC
conditionInfo: aptamer strand: ATP DNA aptamer (quencher-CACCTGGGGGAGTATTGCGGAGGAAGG + anchor), 100 nM annealed; ATP concentration: 500 uM
recordedMetric: switch fluorescence ratio
No unit in the answer, please; the number alone is enough.

Prompt line: Could you share which switch fluorescence ratio value was measured for TTTCTGGAAT ?
Response line: 0.991

Prompt line: Could you share which switch fluorescence ratio value was measured for GTTTTGGGTG ?
Response line: 1.09

Prompt line: Could you share which switch fluorescence ratio value was measured for GCCAATGTGG ?
Response line: 1

Prompt line: Could you share which switch fluorescence ratio value was measured for CTCTCGAAGC ?
Response line: 1.16

Prompt line: Could you share which switch fluorescence ratio value was measured for ATGTAGGGGG ?
Response line: 0.988

Prompt line: Could you share which switch fluorescence ratio value was measured for CACTGTGAAT ?
Response line: 1.01

Prompt line: Could you share which switch fluorescence ratio value was measured for TGAAGTTAGG ?
Response line: 1.01

Prompt line: Could you share which switch fluorescence ratio value was measured for GGATTCTAAT ?
Response line: 0.982

Prompt line: Could you share which switch fluorescence ratio value was measured for TAACGGCGGT ?
Response line: 0.978

Prompt line: Could you share which switch fluorescence ratio value was measured for GTGGGTGCAG ?
Response line: 1.03

Prompt line: Could you share which switch fluorescence ratio value was measured for AGGATTTAAG ?
Response line: 1.05

Prompt line: Could you share which switch fluorescence ratio value was measured for ATAAATTTTT ?
Response line: 1.01

Prompt line: Could you share which switch fluorescence ratio value was measured for AATCAAACTA ?
Response line: 1.05

Prompt line: Could you share which switch fluorescence ratio value was measured for CGGCACCCTT ?
Response line: 0.997

Prompt line: Could you share which switch fluorescence ratio value was measured for CGGGATGCGC ?
Response line: 1.04

Data origin, for the record: the supplement of paper PMC10126150
